Test: PAMPA, compounds measured in multiplex as mixtures (primary protocol)
Details: PAMPA, pH 7.4, PAMPA Papp, internal standard, 10 µM, Lipo expt. group C1
PROPERTY MEASURED: Papp at 10 µM (nm/s)
A number alone suffices; assume nm/s.

* NC(=O)N1c2ccccc2C=Cc2ccccc21 [Carbamazepine] | 68

// fetch Papp at 10 µM given entry CC(C)NCC(O)COc1cccc2ccccc12 (centres unmarked) [Propranolol]
98

====

Experiment: in vitro
Details: PAMPA, pH 7.4, Pe_avg
Positions of bridges follow the written chain, without caps; N, C: chain ends. Non-standard residues stand in square brackets, D forms with d. Residues, ends and D or L forms follow the SMILES beside them. Cha = N[C@@H](CC1CCCCC1)C(=O)O; NMeC = CN[C@@H](CS)C(=O)O; NMeA = CN[C@@H](C)C(=O)O; NPrGly = CCCNCC(=O)O
Quick list: Papp at 10 µM per entry.
A number alone suffices; assume ×10⁻⁶ cm/s.

- CCCN1CC(=O)N[C@@H](CC(C)C)C(=O)N2CCC[C@@H]2C(=O)N(C)[C@@H](C)C(=O)N[C@@H](CC2CCCCC2)C(=O)N(C)[C@@H](C)C(=O)N[C@@H](CC(C)C)C(=O)N(C)[C@H](C(=O)OCC)CSCC(=O)N[C@@H](CC(C)C)C1=O [LB12] ({CH2CO}-L[NPrGly]L[dP][NMeA][Cha][NMeA]L[NMeC]-OEt; thioether N-9): 0.072

Please examine the following record next.
// fetch Papp at 10 µM given entry CCCN1CC(=O)N[C@@H](CC(C)C)C(=O)N(C)[C@@H](C)C(=O)N[C@@H](CC(C)C)C(=O)N(C)[C@H](C(=O)OCC)CSCC(=O)N[C@@H](CC(C)C)C(=O)N(C)[C@@H](C)C(=O)N[C@@H](CC(C)C)C(=O)N2CCC[C@@H]2C1=O [LA08] ({CH2CO}-L[NMeA]L[dP][NPrGly]L[NMeA]L[NMeC]-OEt; thioether N-9)
0.794

====

Assay: PAMPA, individually resynthesized pure compounds (primary protocol);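 further: artificial membrane of 1% soy lecithin in dodecane on a filter plate, donor and acceptor buffer PBS pH 7.4 with 5% DMSO, incubated overnight at room temperature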
Details: PAMPA Papp, Figure 5
Positions of bridges follow the written chain, without caps; N, C: chain ends. Non-standard residues stand in square brackets, D forms with d. Residues, ends and D or L forms follow the SMILES beside them. NMeC = CN[C@@H](CS)C(=O)O; NMeA = CN[C@@H](C)C(=O)O; dAbu = CC[C@@H](N)C(=O)O; dNMeA = CN[C@H](C)C(=O)O; Nleu = CC(C)CNCC(=O)O
PROPERTY MEASURED: Papp (×10⁻⁶ cm/s)
A number alone suffices; assume ×10⁻⁶ cm/s.

// fetch Papp given entry CCOC(=O)[C@@H]1CSCC(=O)N[C@H](CC)C(=O)N(C)[C@@H](C)C(=O)N[C@@H](CC(C)C)C(=O)N(C)[C@H](C)C(=O)N(CC(C)C)CC(=O)N[C@H](CC(C)C)C(=O)N(C)[C@H](C)C(=O)N[C@@H](CC(C)C)C(=O)N1C [A1] ({CH2CO}-[dAbu][NMeA]L[dNMeA][Nleu][dL][dNMeA]L[NMeC]-OEt; thioether N-9)
10

====

Details: PAMPA, 10 µM, pH 7.4
Positions of bridges follow the written chain, without caps; N, C: chain ends. Non-standard residues stand in square brackets, D forms with d. Residues, ends and D or L forms follow the SMILES beside them. NMeNva = CCC[C@H](NC)C(=O)O; NMeC = CN[C@@H](CS)C(=O)O; NMeA = CN[C@@H](C)C(=O)O; Nva = CCC[C@H](N)C(=O)O; Abu = CC[C@H](N)C(=O)O; NPrGly = CCCNCC(=O)O; NEtG = CCNCC(=O)O
Quick list: %R_avg per entry.
A number alone suffices; assume %.

# example entries with known answers
- CCC[C@@H]1NC(=O)CN(CCC)C(=O)[C@H](CC(C)C)NC(=O)CSC[C@@H](C(=O)OCC)N(C)C(=O)[C@H](CC(C)C)NC(=O)[C@H](C)N(C)C(=O)[C@H](CC)NC(=O)[C@H](C)N(C)C(=O)[C@H]2CCCN2C1=O [LB03] ({CH2CO}-L[NPrGly][Nva][dP][NMeA][Abu][NMeA]L[NMeC]-OEt; thioether N-9): 61.4
- CCC[C@@H]1NC(=O)CN(CC)C(=O)[C@H](CC(C)C)NC(=O)CSC[C@@H](C(=O)OCC)N(C)C(=O)[C@H](CC(C)C)NC(=O)[C@H](C)N(C)C(=O)[C@H](CC)NC(=O)[C@H](C)N(C)C(=O)[C@H]2CCCN2C1=O [LB01] ({CH2CO}-L[NEtG][Nva][dP][NMeA][Abu][NMeA]L[NMeC]-OEt; thioether N-9): 62.4

Please examine the following record next.
// fetch %R_avg given entry CCC[C@H]1C(=O)N[C@@H](CC(C)C)C(=O)N(C)[C@@H](C)C(=O)N[C@@H](CC(C)C)C(=O)N(C)[C@H](C(=O)OCC)CSCC(=O)N[C@@H](CC(C)C)C(=O)N(C)[C@@H](C)C(=O)N[C@@H](CC(C)C)C(=O)N2CCC[C@@H]2C(=O)N1C [LC08] ({CH2CO}-L[NMeA]L[dP][NMeNva]L[NMeA]L[NMeC]-OEt; thioether N-9)
4.6

====

Assay: PAMPA, compounds measured in multiplex as mixtures (primary protocol)
Conditions: PAMPA, pH 7.4, PAMPA Papp, internal standard, 10 µM, StereoA expt. group ALL
PROPERTY MEASURED: Papp at 10 µM (nm/s)
A number alone suffices; assume nm/s.

// fetch Papp at 10 µM given entry NC(=O)N1c2ccccc2C=Cc2ccccc21 [Carbamazepine]
51

====

Assay: in vitro
Settings: PAMPA, pH 7.4, PAMPA Pe_avg
Positions of bridges follow the written chain, without caps; N, C: chain ends. Non-standard residues stand in square brackets, D forms with d. Residues, ends and D or L forms follow the SMILES beside them. NMeC = CN[C@@H](CS)C(=O)O; NMeA = CN[C@@H](C)C(=O)O; dAbu = CC[C@@H](N)C(=O)O; dNMeA = CN[C@H](C)C(=O)O; Abu = CC[C@H](N)C(=O)O; Nleu = CC(C)CNCC(=O)O; NEtG = CCNCC(=O)O
PROPERTY MEASURED: Papp at 10 µM (×10⁻⁶ cm/s)
A number alone suffices; assume ×10⁻⁶ cm/s.

# example entries with known answers
- CCOC(=O)[C@@H]1CSCC(=O)N[C@H](CC)C(=O)N(C)[C@@H](C)C(=O)N[C@H](CC(C)C)C(=O)N2CCC[C@@H]2C(=O)N(CC)CC(=O)N[C@H](CC(C)C)C(=O)N(C)[C@@H](C)C(=O)N[C@@H](CC(C)C)C(=O)N1C [JF206_ADD_DDDL_Ethyl] ({CH2CO}-[dAbu][NMeA][dL][dP][NEtG][dL][NMeA]L[NMeC]-OEt; thioether N-9): 0.162
- CCOC(=O)[C@@H]1CSCC(=O)N[C@@H](CC)C(=O)N(C)[C@@H](C)C(=O)N[C@@H](CC(C)C)C(=O)N2CCC[C@H]2C(=O)N(CC(C)C)CC(=O)N[C@H](CC(C)C)C(=O)N(C)[C@@H](C)C(=O)N[C@@H](CC(C)C)C(=O)N1C [JF206_ALL_LLDL_Isobutyl] ({CH2CO}-[Abu][NMeA]LP[Nleu][dL][NMeA]L[NMeC]-OEt; thioether N-9): 0.093

Please examine the following record next.
// fetch Papp at 10 µM given entry CCOC(=O)[C@@H]1CSCC(=O)N[C@@H](CC)C(=O)N(C)[C@@H](C)C(=O)N[C@@H](CC(C)C)C(=O)N2CCC[C@H]2C(=O)N(CC)CC(=O)N[C@@H](CC(C)C)C(=O)N(C)[C@H](C)C(=O)N[C@@H](CC(C)C)C(=O)N1C [JF206_ALL_LLLD_Ethyl] ({CH2CO}-[Abu][NMeA]LP[NEtG]L[dNMeA]L[NMeC]-OEt; thioether N-9)
0.014

====

Test: in vitro
Details: PAMPA, pH 7.4, PAMPA Pe_avg
Positions of bridges follow the written chain, without caps; N, C: chain ends. Non-standard residues stand in square brackets, D forms with d. Residues, ends and D or L forms follow the SMILES beside them. NMeC = CN[C@@H](CS)C(=O)O; NMeA = CN[C@@H](C)C(=O)O; dAbu = CC[C@@H](N)C(=O)O; dNMeA = CN[C@H](C)C(=O)O; Abu = CC[C@H](N)C(=O)O; Nleu = CC(C)CNCC(=O)O; NEtG = CCNCC(=O)O
Quick list: Papp at 10 µM per entry.
A number alone suffices; assume ×10⁻⁶ cm/s.

* CCOC(=O)[C@@H]1CSCC(=O)N[C@H](CC)C(=O)N(C)[C@@H](C)C(=O)N[C@@H](CC(C)C)C(=O)N2CCC[C@@H]2C(=O)N(CC)CC(=O)N[C@@H](CC(C)C)C(=O)N(C)[C@@H](C)C(=O)N[C@@H](CC(C)C)C(=O)N1C [JF206_ADD_DLLL_Ethyl] ({CH2CO}-[dAbu][NMeA]L[dP][NEtG]L[NMeA]L[NMeC]-OEt; thioether N-9) | 0.561

Please examine the following record next.
// fetch Papp at 10 µM given entry CCOC(=O)[C@@H]1CSCC(=O)N[C@@H](CC)C(=O)N(C)[C@@H](C)C(=O)N[C@@H](CC(C)C)C(=O)N2CCC[C@H]2C(=O)N(CC(C)C)CC(=O)N[C@H](CC(C)C)C(=O)N(C)[C@H](C)C(=O)N[C@@H](CC(C)C)C(=O)N1C [JF206_ALL_LLDD_Isobutyl] ({CH2CO}-[Abu][NMeA]LP[Nleu][dL][dNMeA]L[NMeC]-OEt; thioether N-9)
0.182
